Assay: Displacement of ethidium from poly[d(A-T)]-poly[d(A-T)] DNA by fluorimetric method
# maps each entry to its log10(C50)
MEASURED_PARAMETER: log10(C50) (log10 of the value in µM)

- COMPOUND_SMILES: "Br.C/C(=N\\NC(=N)N)c1ccc(C(=O)Nc2ccc(Nc3cc[n+](C)c4cc(N)ccc34)cc2)cc1.[Br-]"
  MEASURED_PARAMETER: "log10(C50)"
  RESULT_VALUE: -0.77
- COMPOUND_SMILES: "C[n+]1cccc(NC(=O)c2ccc(C(=O)Nc3ccc[n+](C)c3)cc2)c1.Cc1ccc(S(=O)(=O)[O-])cc1.Cc1ccc(S(=O)(=O)[O-])cc1"
  MEASURED_PARAMETER: "log10(C50)"
  RESULT_VALUE: 1.80
- COMPOUND_SMILES: "C[n+]1ccc(Nc2ccc(C(=O)Nc3ccc(Nc4c5ccccc5[n+](C)c5cc(N)ccc45)cc3)cc2)cc1.[Cl-].[Cl-]"
  MEASURED_PARAMETER: "log10(C50)"
  RESULT_VALUE: -1.22
- COMPOUND_SMILES: "C[n+]1ccc(Nc2ccc(C(=O)Nc3ccc(Nc4cc[n+](C)c5ccccc45)cc3N)cc2)cc1.[Br-].[Br-]"
  MEASURED_PARAMETER: "log10(C50)"
  RESULT_VALUE: -0.19
- COMPOUND_SMILES: "Cc1cc(Nc2ccc(NC(=O)c3ccc(C(=O)Nc4ccc(Nc5cc(C)[n+](C)c(N)n5)cc4)cc3)cc2)nc(N)[n+]1C.Cc1ccc(S(=O)(=O)[O-])cc1.Cc1ccc(S(=O)(=O)[O-])cc1"
  MEASURED_PARAMETER: "log10(C50)"
  RESULT_VALUE: -0.40
- COMPOUND_SMILES: "C[n+]1ccc(Nc2ccc(NC(=O)c3ccc(Nc4cc[n+](C)c5cc(N)ccc45)cc3)cc2)cc1.[Br-].[Br-]"
  MEASURED_PARAMETER: "log10(C50)"
  RESULT_VALUE: -0.64
- COMPOUND_SMILES: "C[n+]1ccc(Nc2ccc(/C=C/c3ccc(Nc4cc[n+](C)c5ccc(N)cc45)cc3)cc2)cc1.[Br-].[Br-]"
  MEASURED_PARAMETER: "log10(C50)"
  RESULT_VALUE: -0.82
- COMPOUND_SMILES: "Cc1cc(Nc2ccc(NC(=O)c3ccc(C(=O)Nc4ccc(C(=O)Nc5ccc[n+](C)c5)cc4)cc3)cc2)nc(N)[n+]1C.[I-].[I-]"
  MEASURED_PARAMETER: "log10(C50)"
  RESULT_VALUE: -0.59
- COMPOUND_SMILES: "C[n+]1cc(-c2ccc(NC(=O)c3ccc(Nc4cc[n+](C)c5ccc(N)cc45)cc3N)cc2)c(N)nc1N.Cc1ccc(S(=O)(=O)[O-])cc1.Cc1ccc(S(=O)(=O)[O-])cc1"
  MEASURED_PARAMETER: "log10(C50)"
  RESULT_VALUE: -0.96
- COMPOUND_SMILES: "CCCC[n+]1cccc(NC(=O)c2ccc(NC(=O)c3ccc(C(=O)Nc4ccc(C(=O)Nc5ccc[n+](CCCC)c5)cc4)cc3)cc2)c1.Cc1ccc(S(=O)(=O)[O-])cc1.Cc1ccc(S(=O)(=O)[O-])cc1"
  MEASURED_PARAMETER: "log10(C50)"
  RESULT_VALUE: -0.39
- COMPOUND_SMILES: "C[n+]1ccc(Nc2ccc(C(=O)Nc3ccc(Nc4cc[n+](C)c5cc(N)ccc45)cc3)cc2)cc1.Cc1ccc(S(=O)(=O)[O-])cc1.Cc1ccc(S(=O)(=O)[O-])cc1"
  MEASURED_PARAMETER: "log10(C50)"
  RESULT_VALUE: -0.92
- COMPOUND_SMILES: "Br.C/C(=N\\NC(=N)N)c1ccc(NC(=O)Nc2ccc(Nc3cc[n+](C)c4ccc(N)cc34)cc2)cc1.[Br-]"
  MEASURED_PARAMETER: "log10(C50)"
  RESULT_VALUE: -0.60
- COMPOUND_SMILES: "C[n+]1cccc(NC(=O)c2ccc(NC(=O)/C=C/c3ccc(C(=O)Nc4ccc(C(=O)Nc5ccc[n+](C)c5)cc4)cc3)cc2)c1.Cc1ccc(S(=O)(=O)[O-])cc1.Cc1ccc(S(=O)(=O)[O-])cc1"
  MEASURED_PARAMETER: "log10(C50)"
  RESULT_VALUE: -0.66
- COMPOUND_SMILES: "C[n+]1ccc(Nc2ccc(NC(=O)/C=C/c3ccc(C(=O)Nc4ccc(Nc5cc[n+](C)cc5)c(N)c4)cc3)cc2N)cc1.Cc1ccc(S(=O)(=O)[O-])cc1.Cc1ccc(S(=O)(=O)[O-])cc1"
  MEASURED_PARAMETER: "log10(C50)"
  RESULT_VALUE: -1.10
- COMPOUND_SMILES: "C[n+]1ccc(Nc2ccc(/C=C/c3ccc(Nc4cc[n+](C)c5ccccc45)cc3)cc2)cc1.[Br-].[Br-]"
  MEASURED_PARAMETER: "log10(C50)"
  RESULT_VALUE: -0.89
- COMPOUND_SMILES: "C[n+]1ccc(Nc2ccc(S(=O)(=O)Nc3ccc(Nc4c5ccccc5[n+](C)c5cc(N)ccc45)cc3)cc2)cc1.[O-][Cl+3]([O-])([O-])[O-].[O-][Cl+3]([O-])([O-])[O-]"
  MEASURED_PARAMETER: "log10(C50)"
  RESULT_VALUE: -1.15
- COMPOUND_SMILES: "CC[n+]1cccc(NC(=O)c2ccc(NC(=O)c3ccc(NC(=O)c4ccc(C(=O)Nc5ccc[n+](CC)c5)cc4)cc3)cc2)c1.Cc1ccc(S(=O)(=O)[O-])cc1.Cc1ccc(S(=O)(=O)[O-])cc1"
  MEASURED_PARAMETER: "log10(C50)"
  RESULT_VALUE: -0.37
- COMPOUND_SMILES: "Br.C/C(=N\\NC(=N)N)c1ccc(NC(=O)c2ccc(Nc3cc[n+](C)c4ccc(N)cc34)cc2)cc1.[Br-]"
  MEASURED_PARAMETER: "log10(C50)"
  RESULT_VALUE: -0.96
- COMPOUND_SMILES: "C[n+]1ccc(Nc2ccc(NC(=O)/C=C/c3ccc(Nc4cc[n+](C)c5ccc(N)cc45)cc3)cc2)cc1.Cc1ccc(S(=O)(=O)[O-])cc1.Cc1ccc(S(=O)(=O)[O-])cc1"
  MEASURED_PARAMETER: "log10(C50)"
  RESULT_VALUE: -1.05
- COMPOUND_SMILES: "C[n+]1ccc(Nc2ccc(NC(=O)/C=C/c3ccc(Nc4cc[n+](C)c5ccccc45)cc3)cc2)cc1.[Br-].[Br-]"
  MEASURED_PARAMETER: "log10(C50)"
  RESULT_VALUE: -0.82
- COMPOUND_SMILES: "C[n+]1cccc(NC(=O)c2ccc(NC(=O)C34CCC(C(=O)Nc5ccc(C(=O)Nc6ccc[n+](C)c6)cc5)(CC3)CC4)cc2)c1.Cc1ccc(S(=O)(=O)[O-])cc1.Cc1ccc(S(=O)(=O)[O-])cc1"
  MEASURED_PARAMETER: "log10(C50)"
  RESULT_VALUE: 0.72
- COMPOUND_SMILES: "C/C(=N\\NC(=N)N)c1ccc(NC(=O)c2ccc(C(=O)Nc3ccc(C(=O)Nc4ccc[n+](C)c4)cc3)cc2)cc1.Cc1ccc(S(=O)(=O)O)cc1.Cc1ccc(S(=O)(=O)[O-])cc1"
  MEASURED_PARAMETER: "log10(C50)"
  RESULT_VALUE: -0.52
- COMPOUND_SMILES: "Cc1cc(C(=O)Nc2ccc[n+](C)c2)ccc1NC(=O)c1ccc(C(=O)Nc2ccc(C(=O)Nc3ccc[n+](C)c3)cc2C)cc1.Cc1ccc(S(=O)(=O)[O-])cc1.Cc1ccc(S(=O)(=O)[O-])cc1"
  MEASURED_PARAMETER: "log10(C50)"
  RESULT_VALUE: 0.78

* * *

Assay: Lipophilic-hydrophilic balance, Rm of the compound by partition chromatography
Type: physicochemical
Label key: criterion met means Rm under 0.3; criterion not met means Rm of 0.3 or more.

- COMPOUND_SMILES: "CCC[n+]1ccc(-c2ccc(-c3ccc(-c4ccc(NC(=O)c5ccc(C(=O)Nc6ccc(-c7ccc(-c8ccc(-c9cc[n+](CCC)cc9)cc8)cc7)cc6)cc5)cc4)cc3)cc2)cc1.Cc1ccc(S(=O)(=O)[O-])cc1.Cc1ccc(S(=O)(=O)[O-])cc1"
  ASSIGNED_LABEL: "criterion not met"
- COMPOUND_SMILES: "CCC[n+]1cccc2cc(NC(=O)c3ccc(-c4ccc(-c5ccc(-c6ccc(C(=O)Nc7ccc8c(ccc[n+]8CCC)c7)cc6)cc5)cc4)cc3)ccc21.Cc1ccc(S(=O)(=O)[O-])cc1.Cc1ccc(S(=O)(=O)[O-])cc1"
  ASSIGNED_LABEL: "criterion not met"
- COMPOUND_SMILES: "CCC[n+]1cccc(NC(=O)c2ccc(NC(=O)c3ccc(C(=O)Nc4ccc(C(=O)Nc5ccc[n+](CCC)c5)cc4)c(N)c3)cc2)c1.Cc1ccc(S(=O)(=O)[O-])cc1.Cc1ccc(S(=O)(=O)[O-])cc1"
  ASSIGNED_LABEL: "criterion met"
- COMPOUND_SMILES: "C[n+]1cccc(NC(=O)c2ccc(NC(=O)c3ccc(Nc4c5ccccc5[n+](C)c5ccc(N)cc45)cc3)cc2)c1.[Cl-].[Cl-]"
  ASSIGNED_LABEL: "criterion not met"
- COMPOUND_SMILES: "CCC[n+]1ccc(Nc2ccc(C(=O)Nc3ccc(/C(C)=N/NC(=N)N)cc3)c(N)c2)c2cc(N)ccc21.Cc1ccc(S(=O)(=O)O)cc1.Cc1ccc(S(=O)(=O)[O-])cc1"
  ASSIGNED_LABEL: "criterion met"
- COMPOUND_SMILES: "C/C(=C(/C)c1ccc(Nc2cc[n+](C)c3ccc(N)cc23)cc1)c1ccc(Nc2cc[n+](C)cc2)cc1.[Cl-].[Cl-]"
  ASSIGNED_LABEL: "criterion not met"
- COMPOUND_SMILES: "C[n+]1c2ccccc2c(Nc2ccc(NC(=O)Nc3ccc(NC(=N)NC(=N)N)cc3)cc2)c2ccc(N)cc21.Cl.[Cl-]"
  ASSIGNED_LABEL: "criterion not met"
- COMPOUND_SMILES: "C[n+]1ccc(-c2ccc(-c3ccc(-c4ccc(/N=N/Nc5ccc(C(=O)Nc6ccc(-c7ccc(-c8ccc(-c9cc[n+](C)cc9)cc8)cc7)cc6)cc5)cc4)cc3)cc2)cc1.Cc1ccc(S(=O)(=O)[O-])cc1.Cc1ccc(S(=O)(=O)[O-])cc1"
  ASSIGNED_LABEL: "criterion met"
- COMPOUND_SMILES: "C[n+]1cccc(NC(=O)c2ccc(NC(=O)c3ccc(C(=O)Nc4ccc(C(=O)Nc5ccc[n+](C)c5)cc4Cl)cc3)c(Cl)c2)c1.Cc1ccc(S(=O)(=O)[O-])cc1.Cc1ccc(S(=O)(=O)[O-])cc1"
  ASSIGNED_LABEL: "criterion not met"
- COMPOUND_SMILES: "CC[n+]1ccccc1-c1ccc(NC(=O)c2ccc(C(=O)Nc3ccc(-c4cccc[n+]4CC)cc3)cc2)cc1.Cc1ccc(S(=O)(=O)[O-])cc1.Cc1ccc(S(=O)(=O)[O-])cc1"
  ASSIGNED_LABEL: "criterion met"
- COMPOUND_SMILES: "CCC[n+]1cccc(NC(=O)c2ccc(NC(=O)c3ccc(C(=O)Nc4ccc(C(=O)Nc5ccc[n+](CCC)c5)cc4)c(OC)c3)cc2)c1.Cc1ccc(S(=O)(=O)[O-])cc1.Cc1ccc(S(=O)(=O)[O-])cc1"
  ASSIGNED_LABEL: "criterion not met"
